Kindly supply the reported superoxide response (% of plate mean) values for the records listed here.
experiment_summary: yeast aging ROS inhibitors as calorie-restriction mimetics – HTS, primary screen (AID 2690);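 further: yeast aged for seven days with compound at 30 °C before DHE staining; 100% = average MFI of all compound-treated wells on the plate with controls excluded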
condition: S. cerevisiae aged cells, superoxide DHE fluorescence; at 10 µM; hits give low values
In all, about 330,000 compounds went through this assay and about 590 (0.18%) were called active. The entries come from a sample that favours actives as a whole.
Express the result in % but write the number alone.

Problem: Endpoint output: superoxide response (% of plate mean) of "Nc1nnn(CC(=O)N/N=C/c2ccccc2)n1" . Value?
Result: 65

Problem: Endpoint output: superoxide response (% of plate mean) of "O=[N+]([O-])c1cc(S(=O)(=O)Nc2cccc(Cl)c2)ccc1N=Nc1c(O)[nH]c2ccccc12" . Value?
Result: 91.3

Problem: Endpoint output: superoxide response (% of plate mean) of CCOc1ccc2nc(Cl)c(C3CC(c4ccccc4)=NN3C(=O)c3cccs3)cc2c1 (stereo not given) . Value?
Result: 75.7

Problem: Endpoint output: superoxide response (% of plate mean) of "O=C(O)c1ccccc1-c1ccccc1C(=O)NCCc1ccccc1" . Value?
Result: 108

Problem: Endpoint output: superoxide response (% of plate mean) of "O=C(NCCCNC(=O)NC1CCCCC1)NC1CCCCC1" . Value?
Result: 106

Problem: Endpoint output: superoxide response (% of plate mean) of "C=CCn1c(SCc2ccccc2)nc2c1c(=O)[nH]c(=O)n2C" . Value?
Result: 102

Problem: Endpoint output: superoxide response (% of plate mean) of CCCC(C)C(=O)OCC(=O)Nc1c(Br)cc(C)cc1Br (stereo not given) . Value?
Result: 65.3

Problem: Endpoint output: superoxide response (% of plate mean) of O=C(Nc1ccc(Cl)c(Cl)c1)c1ccccc1NC(=O)C1CC=CCC1C(=O)O (stereo not given) . Value?
Result: 128

Problem: Endpoint output: superoxide response (% of plate mean) of "Cn1c(CSCC(=O)Nc2ccccc2)nnc1SCc1ccccc1" . Value?
Result: 118

Problem: Endpoint output: superoxide response (% of plate mean) of "CCc1ccccc1NC(=O)NCCN1CCCCC1" . Value?
Result: 92.8

Problem: Endpoint output: superoxide response (% of plate mean) of "NC(=S)Nc1c(Cl)cccc1Cl" . Value?
Result: 46.6

Problem: Endpoint output: superoxide response (% of plate mean) of "NS(=O)(=O)c1ccc(CCNC(=O)CN2C(=O)c3ccccc3S2(=O)=O)cc1" . Value?
Result: 111

Problem: Endpoint output: superoxide response (% of plate mean) of "COCCC(=O)N1CCC(Oc2ccc(C(=O)NCc3ccon3)cc2)CC1" . Value?
Result: 92

Problem: Endpoint output: superoxide response (% of plate mean) of "O=S(=O)(N1CCOCC1)N1CCN(c2ccccc2F)CC1" . Value?
Result: 90.5

Problem: Endpoint output: superoxide response (% of plate mean) of "O=C(CSCc1ccccc1)Nc1ccccc1" . Value?
Result: 42.6

Problem: Endpoint output: superoxide response (% of plate mean) of "COc1cc(-c2nnn(CC(=O)NCc3ccccc3)n2)cc(OC)c1OC" . Value?
Result: 65.3

Problem: Endpoint output: superoxide response (% of plate mean) of "Cc1ccc(C(=O)O)cc1-c1ccc(/C=C2\SC(=O)N(CC(=O)Nc3ccc4c(c3)OCO4)C2=O)o1" . Value?
Result: 114

Problem: Endpoint output: superoxide response (% of plate mean) of "COc1ccc(CN(C)C(=O)Cc2c[nH]c3ccccc23)c(OC)c1OC" . Value?
Result: 99.6

Problem: Endpoint output: superoxide response (% of plate mean) of "COc1cccc(NC(=O)Cn2c3ccc(F)cc3c3nc4n(c(=O)c32)CCS4)c1" . Value?
Result: 82.6

Problem: Endpoint output: superoxide response (% of plate mean) of "COc1ccc(CCNC(=O)c2ccccc2-c2ccccc2C(=O)O)cc1OC" . Value?
Result: 57.2

Problem: Endpoint output: superoxide response (% of plate mean) of "C/C(=N\NS(=O)(=O)c1cccc([N+](=O)[O-])c1)c1cc2ccccc2o1" . Value?
Result: 107

Problem: Endpoint output: superoxide response (% of plate mean) of "O=C(Nc1ccccc1C(=O)N1CCCCCC1)c1ccccc1Cl" . Value?
Result: 106

Problem: Endpoint output: superoxide response (% of plate mean) of "O=C(Cn1nnc(-c2ccccc2)n1)N/N=C/c1ccc(-c2ccc(Cl)cc2)o1" . Value?
Result: 92.1

Problem: Endpoint output: superoxide response (% of plate mean) of "Cc1c(C(=O)OCC(=O)N(CCC#N)c2ccccc2)oc2c1ccc1ccccc12" . Value?
Result: 86.3

Problem: Endpoint output: superoxide response (% of plate mean) of "Cc1ccc2cccc(S(=O)(=O)N3CCN(c4ccccc4F)CC3)c2n1" . Value?
Result: 61.4

Problem: Endpoint output: superoxide response (% of plate mean) of "O=C(O)C1CCN(S(=O)(=O)N2CCOCC2)CC1" . Value?
Result: 126

Problem: Endpoint output: superoxide response (% of plate mean) of "O=C(Nc1c(Cl)cccc1Cl)C1CCC1" . Value?
Result: 111

Problem: Endpoint output: superoxide response (% of plate mean) of "CC[C@]12c3[nH]c4cc(CCC(=O)N(C)C)ccc4c3CCN1C(=O)[C@@H](CC(=O)NCC13CC4CC(CC(C4)C1)C3)C[C@@H]2C(=O)N1CCN(C(=O)C2CC2)CC1" . Value?
Result: 120

Problem: Endpoint output: superoxide response (% of plate mean) of "COc1ccc(CCNC(=O)Cc2ccc(C)cc2)cc1OC" . Value?
Result: 102

Problem: Endpoint output: superoxide response (% of plate mean) of "C/C(N)=C(/C#N)C(=O)COC(=O)C1=NN(c2ccccc2)C(=O)CC1" . Value?
Result: 82.1

Problem: Endpoint output: superoxide response (% of plate mean) of CSCCC(NS(=O)(=O)c1ccccc1F)C(=O)N1CC=C(c2ccccc2)CC1 (stereo not given) . Value?
Result: 105

Problem: Endpoint output: superoxide response (% of plate mean) of "CC(=O)c1ccc(N2CCN(S(=O)(=O)c3ccc4c(c3)CC(=O)N4C)CC2)cc1" . Value?
Result: 97.6

Problem: Endpoint output: superoxide response (% of plate mean) of "Cc1c2cn[nH]c(=O)c2c(C)n1Cc1ccc(F)cc1" . Value?
Result: 86.5

Problem: Endpoint output: superoxide response (% of plate mean) of O=C(OC1CCCCC1=O)c1cccc(S(=O)(=O)NCc2ccccc2)c1 (stereo not given) . Value?
Result: 91.2

Problem: Endpoint output: superoxide response (% of plate mean) of "N#Cc1cccc(NC(=O)CN2CCCCCC2)c1" . Value?
Result: 94.7
